Entries and their INHIBITION
Tested on: Plasmodium berghei
Assay: Screen against P. berghei liver stage (PbLuc), transformed with Luciferase, at 2uM
Type: functional, HepG2
Settings: tested at 2 uM
About 2,700 (4%) of roughly 68,000 compounds showed an effect of 50% or more. This is one part of a sample in which strong results are shown more often than they occur.

>  <smiles-input>
COCC(=O)N1CCC(c2nccn2CC2CC2)CC1

>  <INHIBITION / %>
-34.68

$$$$
>  <smiles-input>
Cc1cn(CC(=O)Nc2cc(C(C)(C)C)nn2C)cn1

>  <INHIBITION / %>
53.66

$$$$
>  <smiles-input>
COCCN1CCOCC2(CCN(c3cnccn3)CC2)C1

>  <INHIBITION / %>
50.85

$$$$
>  <smiles-input>
Cc1cn(CC(=O)Nc2cc(C(C)C)nn2C)cn1

>  <INHIBITION / %>
5.93

$$$$
>  <smiles-input>
Cc1ccc(C(=O)N(C)CCOc2ccccc2F)c(=O)[nH]1

>  <INHIBITION / %>
54.62

$$$$
>  <smiles-input>
Cc1ccc(C(=O)N(Cc2ccccc2F)C2CC2)c(=O)[nH]1

>  <INHIBITION / %>
-2.23

$$$$
